molecular target: XIAP-BIR3 (Homo sapiens (Human), UniProt P98170); experiment: BIR binding assay (FRET competition), XIAP BIR3
Sequence (P98170 241-356): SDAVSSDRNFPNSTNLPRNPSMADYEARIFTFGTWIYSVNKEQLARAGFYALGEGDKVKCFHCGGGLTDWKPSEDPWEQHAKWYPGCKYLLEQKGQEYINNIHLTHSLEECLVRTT
measured-parameter: IC50

molecule-smiles: C[C@@H]1CN(CC(=O)N2CC(C)(C)c3[nH]c(=O)c(Cc4ccc(F)cc4)cc32)[C@@H](CN2CCO[C@H](C(=O)NCCNC(=O)[C@@H]3CN(C[C@H]4CN[C@H](C)CN4CC(=O)N4CC(C)(C)c5[nH]c(=O)c(Cc6ccc(F)cc6)cc54)CCO3)C2)CN1
IC50: 15.8 to 31.6 nM

For every item in the list below, what is its measured IC50?
1. Cc1ccc(Oc2cc3c([nH]c2=O)C(C)(C)CN3C(=O)CN2C[C@@H](C)NC[C@@H]2CN2CCO[C@H](C(=O)NCc3ccc(CNC(=O)[C@@H]4CN(C[C@H]5CN[C@H](C)CN5CC(=O)N5CC(C)(C)c6[nH]c(=O)c(Oc7ccc(C)cc7)cc65)CCO4)cc3)C2)cc1
2. C[C@@H]1CN(CC(=O)N2CC(C)(C)c3[nH]c(=O)c(Cc4c(F)cc(F)cc4F)cc32)[C@@H](CN2CCO[C@H](COc3cccc(OC[C@@H]4CN(C[C@H]5CN[C@H](C)CN5CC(=O)N5CC(C)(C)c6[nH]c(=O)c(Cc7c(F)cc(F)cc7F)cc65)CCO4)c3)C2)CN1
3. C[C@@H]1CN(CC(=O)N2CC(C)(C)c3ncc(Oc4ccc(F)cc4)cc32)[C@@H](CN2CCO[C@H](COc3cccc(OC[C@@H]4CN(C[C@H]5CN[C@H](C)CN5CC(=O)N5CC(C)(C)c6ncc(Oc7ccc(F)cc7)cc65)CCO4)c3)C2)CN1

1: 31.6 to 501 nM; 2: 15.8 to 31.6 nM; 3: 31.6 to 501 nM

The measurements presented in this section are drawn from patent US20250326771A1.
